target: Rap guanine nucleotide exchange factor 3 (Homo sapiens); experiment: Counterscreen qHTS for antagonist of cAMP-regulated guanine nucleotide exchange factor 3 (EPAC1) (AID 1645888); conditions: Rap1B-BODIPY-GDP nucleotide exchange, fluorescence; series mostly up to 154 µM;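 further: fluorescence loss as bound BODIPY-GDP is released from Rap1B; % of control where 0% means no effect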
Records with an inconclusive call do not appear. Calls of active or inactive are those of the source. The call rests on the fitted dose curve; in most records, active means well fitted inhibition curve with a large enough effect; inconclusive means small, poorly fitted or top-dose-only effect; inactive means no such curve, though single readings can be large or run the other way.
MEASURED PROPERTY: activity change, negative = inhibition

Record excerpt, results attached:
{"columns": ["COMPOUND", "activity change, negative = inhibition"],
 "data": [
  ["COc1ccc(/C=C/C(=O)Oc2ccc(C)c(C)c2)cc1OC", "inactive"],
  ["Cc1nnc(SCc2ccccc2CSc2nnc(C)s2)s1", "inactive"],
  ["CC1Cc2nc(SCC(=O)N3CCCc4ccccc43)n(C)c(=O)c2S1 (stereo unspecified)", "-11.9% [at 30.8 µM] (inactive)"],
  ["CC1=NOC(=O)/C1=C\\c1ccc(-c2ccc(Br)cc2)o1", "-10.2% [at 30.8 µM] (inactive)"],
  ["Cc1c2ccccc2nc2c(F)c(NC(C)C)c(F)c(F)c12", "inactive"]
]}

Now turn to the next compound.
// lookup activity change, negative = inhibition for CCOP(=O)(OCC)C(Cc1ccc(OC)c(OC)c1)N=C(c1ccccc1)c1ccccc1 (stereo unspecified)
-11.3% [at 30.8 µM] (inactive)

----------
assay: qHTS for differential inhibitors of proliferation of Plasmodium falciparum line HB3 (AID 1886); details: Plasmodium falciparum HB3 proliferation inhibition; series mostly up to 28.7 µM;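 further: parasites grown with compound for 72 h before SYBR Green readout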
Results filed as inconclusive are left out. Activity calls are given as the source filed them. The call rests on the fitted dose curve; in most records, active means well fitted curve in the direction sought with a large enough effect; inconclusive means small, poorly fitted or top-dose-only effect, or another doubt; inactive means no such curve, though single readings can be large or run the other way.
Returns: one label drawn from active, inactive

{"columns": ["COMPOUND", "QUALITATIVE LABEL"],
 "data": [
  ["Cc1cc(N)c2ccccc2[n+]1CCCCCCCCCCCCCC[n+]1c(C)cc(N)c2ccccc21", "active"],
  ["O=S(=O)(O)C1CCNCC1", "inactive"],
  ["Cc1c(C)c2c(c(C)c1O)CCC(C)(CN1CCN(c3cc(N4CCCC4)nc(N4CCCC4)n3)CC1)O2 (centres undefined)", "active"]
]}

Identify the outcome logged in this assay for the compound shown: C[C@]12C[C@H](O)C3[C@@H](CCC4=CC(=O)CC[C@@]43C)[C@@H]1CC[C@@H]2C(=O)CO (some centres undefined)
inactive

----------
Exercise: state measured Z-AUC for each of the compounds provided.
test: qHTS drug screen for cell cycle checkpoint inhibitors in PARPi-resistant BRCA-mutant ovarian cancer cell lines. (AID 1963452); conditions: PEO1/OlaR viability, CellTiter-Glo luminescence, 96 h; measured here: PEO4 Z-AUC; stronger effect = lower value
Give bare numbers.

{"columns": ["COMPOUND", "Z-AUC"],
 "data": [
  ["CONC(=O)c1ccccc1Nc1cc(Nc2cc(C)nn2C(C)C)ncc1Cl", 0.196],
  ["O=C1CCC[C@@H]2[C@@H]3CCC[N@+]4([O-])CCC[C@H](CN12)[C@H]34", 0.881]
]}

Items follow; give Z-AUC for each.
1. CC(C)(O)C1CCC(Nc2ccc3ncc(-c4cccc(C(F)(F)F)c4)n3n2)CC1 (stereo not drawn)
2. O=C(Nc1ccc(-c2ccnc(Nc3ccc(N4CCOCC4)cc3)n2)cc1)[C@@H]1CCCN1
3. CC(C)NC(=O)C1CCC(n2c(NC(=O)c3ccc(F)cc3)nc3ccc(CN4CCC(C(C)(C)O)CC4)cc32)CC1 (stereo not drawn)
4. CN(C)CCCOc1ccc(-c2ccc3ncc4c(c3c2)n(C2CCOCC2)c(=O)n4C)cn1

1. -1.21
2. 0.0561
3. -1.3
4. -1.31

Each compound below has a recorded value; state its Z-AUC.
1. NC(=O)c1cccc2[nH]c(-c3ccc([C@@H]4CCCN4)cc3F)nc12
2. CCC(C)n1ncn(-c2ccc(N3CCN(c4ccc(OCC5COC(Cn6cncn6)(c6ccc(Cl)cc6Cl)O5)cc4)CC3)cc2)c1=O (stereo not drawn)

[-0.377, -0.0223]
